B1: ZNF449 (parent)
chain: EPHKCPECGKRFLRSSDLYRHQRL

# Variants of: B1
# run.description: protein stability index of a GFP-peptide fusion (GPS, HEK-293T) (PSI 1-6); higher = more stable;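 also: lentivirally expressed fusions sorted by FACS into six bins by GFP to DsRed ratio, PSI derived from sequencing read proportions per bin multiplied by bin number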
# stated.conditions: c terminus: a fixed tail appended
property: protein stability index
Response field accepts a number only; no unit should be typed.

| polymer.sequence | protein stability index |
| --- | --- |
| EPHKCPECGKRFLRHSDLYRHQRL [S15H] | 3.64 |
| EPHKCPECGKRFLRSSDSYRHQRL [L18S] | 3.15 |
| FPHKCPECGKRFLRSSDLYRHQRL [E1F] | 2.93 |
| EPHKCPECGKRFLRSSQLYRHQRL [D17Q] | 2.59 |
| EPHKCGECGKRFLRSSDLYRHQRL [P6G] | 3.5 |

Please turn your attention to the following entry.
Record request: protein stability index value, item EPHKCPECGKRFERSSDLYRHQRL [L13E]
4.78
